Measured values drawn from the supplement of paper PMC12042874 for this set.

# test_name: amyloid nucleation score (Sup35N fusion, yeast selection) (log enrichment); library NNK2; higher = more nucleation; inactive = no reads after selection;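 note: zero at mode of non-aggregating sequences after 7 days selection at 30°C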
Provide the reported amyloid nucleation score of each item.
Answers are plain numbers.

These solved cases illustrate the format of a correct answer.
> print(dat)
              substance        parameter.measured  recorded.value
1  DRAWQFPGDRAINGVRSAFF  amyloid nucleation score           -1.04
2  VKIWLCATCFMGEDVQETAQ  amyloid nucleation score            7.05
3               RIISCRN  amyloid nucleation score           0.331

List the reported amyloid nucleation score of each substance below.
1. ITEYSYWSGIPSSMVSPIKH
2. VSLIVYKGHKRGWVYRVSRR
3. TPNYLSHTVVCVCINNVLIF
4. TFSVQAVNLFSIWVLSGPGD

[-0.459, 0.42, 4.74, 8.02]

List the reported amyloid nucleation score of each substance below.
1. IYGLCERTFEA
2. CCYQVSYCIVSVIDSVEYGP

0.977
6.99

----------
# test_name: amyloid nucleation score (Sup35N fusion, yeast selection) (log enrichment); library NNK1; higher = more nucleation; inactive = no reads after selection
Category key, based on recorded amyloid nucleation score: bin A = under -0.1, bin B = from -0.1 up to 0.4, bin C = 0.4 and over

> print(dat)
              substance  class.assignment
1  MKVDNSVLMPATTHQRNMQG             bin A
2         LYGSRPYSTTKTY             bin A
3  VVFRGAVREVQGSWESCILA             bin C
4           GGKVGREQTIW             bin A
5  TRRVWLQCLMLSYMAVYISM             bin B

Which class is correct for the following substance? `RTLGDSNGNNVGLQVVPKCL`
bin A

Please give the result for `LLRVAFLKRYFSTIFCVLLR` too.
bin A

Please give the result for `DVVSFSKVCVVCGLSWSASY` too.
bin C

Please give the result for `VRSCTWCGSEGPGTIPWLGD` too.
bin C

Please give the result for `RYMWYLVCS` too.
bin B

----------
# test_name: amyloid nucleation score (Sup35N fusion, yeast selection) (log enrichment); library NNK3; higher = more nucleation; inactive = no reads after selection
parameter_measured: amyloid nucleation score

These solved cases illustrate the format of a correct answer.
> print(dat)
       ordered.residues        parameter.measured  recorded.value
1          YKGDKFVRCSVW  amyloid nucleation score        inactive
2              NCSYIDQR  amyloid nucleation score           0.483
3  DYKKVGDSLFTVFVFRFINV  amyloid nucleation score        inactive
4      NIRIDMMWSLSCHKLG  amyloid nucleation score        inactive
5   SYFRRIRWQLEEHLLLLWR  amyloid nucleation score        inactive
6            AESICALTML  amyloid nucleation score        inactive
7  WYGVSACYGWHNVAHSSRSL  amyloid nucleation score            1.22
8  NYFGLWGCHTCITCYPVTLV  amyloid nucleation score            1.29

Given `SDRFHVAHNNFLMRGKGFRT` , state its recorded amyloid nucleation score.
inactive

----------
# test_name: amyloid nucleation score (Sup35N fusion, yeast selection) (log enrichment); library NNK2; higher = more nucleation; inactive = no reads after selection
parameter_measured: amyloid nucleation score
Give bare numbers.

These solved cases illustrate the format of a correct answer.
> print(dat)
              substance        parameter.measured  recorded.value
1  RIYFVEFMESWWGVGSLKEV  amyloid nucleation score            3.51
2   KWIYQIFPVMALECKGVLH  amyloid nucleation score            2.85
3  DGCDNYDSRESKTLFMRMMW  amyloid nucleation score            1.11
4         CMQTSDEPLRHGP  amyloid nucleation score           -0.06
5  FYTYDLSFMSNYSVLRVLCS  amyloid nucleation score           -1.48
6               SCCRGEF  amyloid nucleation score          -0.235

Turning now to a further record.
Given `GTCCARAIGRYGYFNCRHRM` , state its recorded amyloid nucleation score.
-0.017
